# tested-on: human NTCP (Homo sapiens)
# Sequence (Q14973 whole entry): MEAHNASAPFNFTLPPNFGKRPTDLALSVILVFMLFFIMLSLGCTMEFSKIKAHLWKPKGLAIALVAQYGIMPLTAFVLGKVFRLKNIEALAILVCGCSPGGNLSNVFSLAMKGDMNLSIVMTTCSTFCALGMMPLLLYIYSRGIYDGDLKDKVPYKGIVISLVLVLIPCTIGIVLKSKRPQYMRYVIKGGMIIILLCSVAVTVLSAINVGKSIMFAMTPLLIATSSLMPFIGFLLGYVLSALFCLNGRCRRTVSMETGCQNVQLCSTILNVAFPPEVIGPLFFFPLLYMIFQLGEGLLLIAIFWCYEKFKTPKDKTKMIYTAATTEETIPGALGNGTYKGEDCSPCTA
# protocol: Screening taurocholate uptake assay (96-well, [14C]taurocholate, 10 µM drug)
# details: combined ranking from functional and binding screening assays
Structures can show the parent of a compound that is named as a salt.
result-type: Ranking score
Just the number, please.

Give the measured Ranking score of CC[N+](C)(C)c1cccc(O)c1 [Edrophonium chloride] .
420.888

Same question, C=CC[N@@+]12CC[C@@]34c5ccccc5N5/C=C6/[C@H]7C[C@H]8[C@@]9(CC[N@@+]8(CC=C)C/C7=C/CO)c7ccccc7N(/C=C(/[C@@H](C[C@@H]31)/C(=C\CO)C2)[C@H]54)[C@@H]69.[Cl-].[Cl-] [Alcuronium chloride] this time
375.739

Same question, CN(C)CCCN1c2ccccc2Sc2ccc(C(F)(F)F)cc21 [Triflupromazine hydrochloride] this time
447.888

Same question, CNCCCC12CCC(c3ccccc31)c1ccccc12 [Maprotiline hydrochloride] this time
403.36

Same question, CC(C)NCC(O)c1ccc2ccccc2c1.Cl (stereo not shown) [Pronethalol hydrochloride] this time
409.31

Same question, CC(=O)O[C@H]1CC[C@@]2(C)C(=CC[C@@H]3[C@@H]2CC[C@]2(C)C(=O)CC[C@@H]32)C1 [Dehydroisoandosterone 3-acetate] this time
438.862

Same question, `COc1ccccc1N1CCN(CCCCNC(=O)c2ccc3ccccc3c2)CC1.Cl.Cl` this time
447.929

Same question, OCc1cc(C(O)CNCCCCCCOCCCCc2ccccc2)ccc1O (stereo not shown) this time
391.804

Same question, CCN1CC(CCN2CCOCC2)C(c2ccccc2)(c2ccccc2)C1=O.Cl (stereo not shown) [Doxapram hydrochloride] this time
446.058

Same question, `CCCCC1C(=O)N(c2ccccc2)N(c2ccccc2)C1=O` this time
440.765

Same question, `C[C@@H](c1ncncc1F)[C@](O)(Cn1cncn1)c1ccc(F)cc1F` this time
370.988

Same question, CN(C)CC/C=C1\c2ccccc2CSc2ccccc21 [Dosulepin hydrochloride] this time
296.985

Same question, O=C([O-])CCNC(=O)c1ccc(/N=N/c2ccc(O)c(C(=O)[O-])c2)cc1.[Na+].[Na+] [Balsalazide Sodium] this time
403.097

Same question, CCC1=C(C)CN(C(=O)NCCc2ccc(S(=O)(=O)NC(=O)N[C@H]3CC[C@H](C)CC3)cc2)C1=O [Glimepiride] this time
350.338

Same question, `CCOc1ccc2c(c1)C(C)=CC(C)(C)N2` this time
406.463

Same question, CCCCCCCCNC(C)C(O)c1ccc(SC(C)C)cc1 (stereo not shown) this time
345.514
